system: human alpha-2A receptor (Homo sapiens)
Construct: expressed in transfected cells
Sequence (P08913 1-465): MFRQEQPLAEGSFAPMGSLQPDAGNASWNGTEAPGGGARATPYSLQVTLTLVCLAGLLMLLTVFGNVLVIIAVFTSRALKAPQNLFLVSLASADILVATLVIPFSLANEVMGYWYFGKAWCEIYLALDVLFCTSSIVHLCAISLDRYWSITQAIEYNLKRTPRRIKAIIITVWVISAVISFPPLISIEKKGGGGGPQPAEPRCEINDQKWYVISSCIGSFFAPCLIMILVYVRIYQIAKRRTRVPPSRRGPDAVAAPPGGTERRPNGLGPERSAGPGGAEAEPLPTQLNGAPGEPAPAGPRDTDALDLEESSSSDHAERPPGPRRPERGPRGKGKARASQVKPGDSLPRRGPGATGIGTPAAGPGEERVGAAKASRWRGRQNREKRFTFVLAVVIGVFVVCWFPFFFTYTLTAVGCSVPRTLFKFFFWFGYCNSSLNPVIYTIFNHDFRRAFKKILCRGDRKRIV
assay_protocol: FLIPR calcium assay, HEK293 cells with human alpha-2A receptor coupled via chimeric Gqi5
Type: cell-based
metric: pEC50
Give only the number. pEC50 is defined as minus log10 of concentration in molar units.

Entry under review: CCc1c(N=C2NCCN2)ccc2[nH]cnc12 [Compound 2, reference compound] . Reported pEC50?
7.96

====

system: bovine alpha adrenergic 1A receptor (Bos taurus, UniProt P18130)
Sequence (P18130 1-466): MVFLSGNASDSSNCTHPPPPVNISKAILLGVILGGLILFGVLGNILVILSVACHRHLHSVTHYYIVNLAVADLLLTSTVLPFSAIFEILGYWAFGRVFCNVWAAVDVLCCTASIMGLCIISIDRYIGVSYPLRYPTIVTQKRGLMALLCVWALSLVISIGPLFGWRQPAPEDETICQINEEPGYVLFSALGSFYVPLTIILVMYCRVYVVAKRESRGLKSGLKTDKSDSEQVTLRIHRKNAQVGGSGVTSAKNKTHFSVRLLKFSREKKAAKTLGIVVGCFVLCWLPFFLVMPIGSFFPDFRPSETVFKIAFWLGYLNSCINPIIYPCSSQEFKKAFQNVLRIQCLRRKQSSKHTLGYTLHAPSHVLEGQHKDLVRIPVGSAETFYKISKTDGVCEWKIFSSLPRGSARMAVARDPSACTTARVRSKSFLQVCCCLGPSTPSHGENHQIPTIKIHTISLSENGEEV
assay_protocol: FLIPR calcium assay, HEK293 cells stably expressing bovine alpha 1A receptor
condition_notes: HEK293 stable cell line, peak calcium signal; read-out: bovine alpha1A EC50 (nm)
metric: EC50 (nM)
Express your answer in nM, writing the number without its unit.

molecule: Brc1c(NC2=NCCN2)ccc2nccnc12 [Compound 4, brimonidine, reference compound]
EC50, nM: 1200

Continue with the next molecule.
EC50 of "Cc1c(N=C2NCCN2)ccc2[nH]cnc12" on bovine alpha adrenergic 1A receptor (Bos taurus, UniProt P18130)?
286

====

system: human alpha-2A receptor (Homo sapiens, UniProt P08913)
Construct: expressed in transfected cells
assay_protocol: FLIPR calcium assay, HEK293 cells with human alpha-2A receptor coupled via chimeric Gqi5
Assay type: cell-based
condition_notes: HEK293 stable cell line with Gqi5, peak calcium signal; read-out: human alpha2A EC50 (nm)
Reported pEC50 values for the following molecules.
Give only the number. pEC50 is defined as minus log10 of concentration in molar units.

molecule: Brc1c(N=C2NCCN2)ccc2[nH]cnc12 [Compound 3, reference compound]
experimental_result: 9.00

Entry under review: Cc1c(N=C2NCCN2)ccc2[nH]cnc12 [Compound 1] . Reported pEC50?
9.15
